The reported measurements were obtained from patent US11319304B2.

target: UniProt Q14833; test: mGlu4 PAM potentiation assay, CHO cells transfected with human mGluR4, Ca2+-sensitive dye fluorescence
Sequence (Q14833 33-912 limits assumed): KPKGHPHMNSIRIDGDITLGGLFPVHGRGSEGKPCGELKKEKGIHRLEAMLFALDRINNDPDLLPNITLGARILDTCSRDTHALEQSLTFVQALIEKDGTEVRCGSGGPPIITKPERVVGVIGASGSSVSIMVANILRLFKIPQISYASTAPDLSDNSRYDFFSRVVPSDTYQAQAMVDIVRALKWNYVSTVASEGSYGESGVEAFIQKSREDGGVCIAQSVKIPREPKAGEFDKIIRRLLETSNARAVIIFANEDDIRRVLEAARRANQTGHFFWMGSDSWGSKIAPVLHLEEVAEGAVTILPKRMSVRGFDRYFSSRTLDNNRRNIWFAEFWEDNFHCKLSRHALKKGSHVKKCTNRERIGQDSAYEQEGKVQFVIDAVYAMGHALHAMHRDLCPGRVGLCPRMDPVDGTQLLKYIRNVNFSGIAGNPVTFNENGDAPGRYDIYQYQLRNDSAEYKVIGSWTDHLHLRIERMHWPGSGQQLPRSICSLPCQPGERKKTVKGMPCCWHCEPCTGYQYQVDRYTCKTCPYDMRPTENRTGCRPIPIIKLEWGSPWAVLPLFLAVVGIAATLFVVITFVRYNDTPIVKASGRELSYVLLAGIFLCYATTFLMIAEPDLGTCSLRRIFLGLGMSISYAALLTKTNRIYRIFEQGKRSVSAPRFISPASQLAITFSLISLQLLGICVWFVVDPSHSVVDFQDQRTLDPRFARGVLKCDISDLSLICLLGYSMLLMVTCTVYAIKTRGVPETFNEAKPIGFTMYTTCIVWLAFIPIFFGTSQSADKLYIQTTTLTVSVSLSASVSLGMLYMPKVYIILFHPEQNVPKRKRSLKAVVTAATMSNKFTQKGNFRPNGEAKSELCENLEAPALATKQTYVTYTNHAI
measured-endpoint: EC50 (nM)

>  <compound>
O=C(Nc1ccc2c(OC3CCOCC3F)nccc2c1)c1ccccn1 (stereo not drawn)

>  <target-under-test>
UniProt Q14833

>  <measured-endpoint>
EC50

>  <endpoint-result>
183

$$$$

a = CC1(C)CC(Oc2nccc3cc(NC(=O)c4ccccn4)ccc23)CCO1 (stereo not drawn)
b = CO[C@@H](C)COc1nccc2cc(NC(=O)c3ncccc3N)ccc12
Ask: Could you please tell me which of these two has the higher EC50: a or b ? Please identify the chosen entry by its label.
Reply: b
